Test system: bamyardgrass
Assay: Test B flood test barnyardgrass
Type: in vivo, Echinochloa crus-galli
Details: Rate 250 g/ha; Pre-emergence; flood-test species; scale 0 to 10, 0 is no effect, 10 is complete control
Recorded Barnyardgrass plant response rating for the following compounds
Give only the figure.

1) Cc1nc(C)c(Cn2c(=O)on(C(=O)N(c3ccc(F)cc3)C(C)C)c2=O)s1 [Compound 232] ... 0

q: Could you share which Barnyardgrass plant response rating value was measured for CC(C)n1c(=O)on(C(=O)N(c2ccc(Cl)cc2Cl)C2CCC2)c1=O [Compound 319] ?
a: 0

q: Would you mind telling me what Barnyardgrass plant response rating value was observed for CC(C)N(C(=O)n1oc(=O)n(C(C)C)c1=O)c1cnccn1 [Compound 296] ?
a: 0

###

Reported Plant response rating, Morningglory by item:
Tested on: morningglory
Experiment: Test B pre/postemergence morningglory
Assay type: in vivo, Ipomoea hederacea
Conditions: Postemergence, Rate 500 g/ha; scale 0 to 10, 0 is no effect, 10 is complete control
Protocol: […] At the same time, these crop and weed species were also treated with postemergence applications of test chemicals formulated in the same manner. […] Treated plants and controls were maintained in a greenhouse for twelve to sixteen days, after which all species were compared to controls and visually evaluated. […]
Kindly provide the number alone.

1) CC(C)N(C(=O)n1oc(=O)n(CC2CCC2)c1=O)c1ccc(F)cc1F ... 5
2) CC(C)N(C(=O)n1oc(=O)n(CC(=O)C2CC2)c1=O)c1ccccc1 ... 10
3) COC(=O)CCCn1c(=O)on(C(=O)N(c2ccc(F)cc2F)C(C)C)c1=O ... 9

q: What value of Plant response rating, Morningglory has been recorded for this entry: `CC(C)N(C(=O)n1oc(=O)n(COCc2ccccc2)c1=O)c1ccc(F)cc1F`
a: 10

###

System: soybean
Assay: Test B pre/postemergence soybean
Type: in vivo, Glycine max
Conditions: Preemergence, Rate 500 g/ha; scale of 0 to 10 where 0 is no effect and 10 is complete control
METRIC: Plant response rating, Soybean
Please give only the number in your answer, with no unit.

Consider the following illustrative entries.
1. CC(C)N(C(=O)n1oc(=O)n(CSC#N)c1=O)c1ccc(F)cc1 ... 0
2. CC(C)N(C(=O)n1oc(=O)n(CC2CCCCO2)c1=O)c1ccc(Cl)cc1 (stereo not shown) ... 0
3. COc1cc(C)cc(C)c1-n1c(=O)on(C(=O)N(c2ccc(F)cc2F)C(C)C)c1=O ... 0

Consider the additional molecule presented here.
q: Value lookup for Plant response rating, Soybean; key = CCC(C)n1c(=O)on(C(=O)N(c2ccccc2)C(C)C)c1=O (stereo not shown) [Compound 611]
a: 7

###

System: wild oat
Assay: Test B pre/postemergence wild oat
Format: in vivo, Avena fatua
Details: Preemergence, Rate 500 g/ha; scale of 0 to 10 where 0 is no effect and 10 is complete control
Description: […] At the same time, these crop and weed species were also treated with postemergence applications of test chemicals formulated in the same manner. […] Treated plants and controls were maintained in a greenhouse for twelve to sixteen days, after which all species were compared to controls and visually evaluated. […]
METRIC: Wild oats plant response rating
Please give only the number in your answer, with no unit.

1) CCN(C(=O)n1oc(=O)n(C2CCCCC2)c1=O)C1CCCCC1 [Compound 308] ... 0
2) CC(C)C(C)n1c(=O)on(C(=O)N(c2ccccc2)C(C)C)c1=O (centres unmarked) [Compound 355] ... 9
3) Cc1c(-n2c(=O)on(C(=O)N(c3ccc(Cl)cc3)C(C)C)c2=O)ccc2ccccc12 [Compound 336] ... 0
4) CC(C)n1c(=O)on(C(=O)N(c2ccc(Cl)cc2Cl)C2CCC2)c1=O [Compound 319] ... 0
5) CCN(CC)C(=O)Cn1c(=O)on(C(=O)N(c2ccccc2)C(C)C)c1=O [Compound 571] ... 7
6) Cc1nnsc1Cn1c(=O)on(C(=O)N(c2ccc(F)cc2)C(C)C)c1=O [Compound 380] ... 4

q: Data request, read-out Wild oats plant response rating, for CC(C)N(C(=O)n1oc(=O)n(N2C(C)CCCC2C)c1=O)c1ccc(F)cc1 (centres unmarked) [Compound 382]
a: 4

q: Requested field: Wild oats plant response rating. Item: CC(C)N(C(=O)n1oc(=O)n(CCCC(F)(F)F)c1=O)c1ccccc1 [Compound 585]
a: 9

q: # query: Wild oats plant response rating of entry CC(C)N(C(=O)n1oc(=O)n(C(C)C(=O)c2ccccc2)c1=O)c1ccc(F)cc1F (centres unmarked) [Compound 511]
a: 2

q: Return reported Wild oats plant response rating; argument: CC(C)N(C(=O)n1oc(=O)n(C[Si](C)(C)C)c1=O)c1ccccc1 [Compound 577]
a: 0

q: Can you share its Wild oats plant response rating? I mean this compound: CC(C)N(C(=O)n1oc(=O)n(CCl)c1=O)c1ccc(F)cc1 [Compound 376]
a: 0
